Data provenance: patent US20250152704A1

- assayTarget: T1, Recombinant in-house Human FcRn protein (human, UniProt P55899 24-297; P61769 21-119, limits assumed)
- T1 construct: also called huFCRN; HuFcRn
- T1 sequence (P55899 24-297 limits assumed, chain 1 of 2): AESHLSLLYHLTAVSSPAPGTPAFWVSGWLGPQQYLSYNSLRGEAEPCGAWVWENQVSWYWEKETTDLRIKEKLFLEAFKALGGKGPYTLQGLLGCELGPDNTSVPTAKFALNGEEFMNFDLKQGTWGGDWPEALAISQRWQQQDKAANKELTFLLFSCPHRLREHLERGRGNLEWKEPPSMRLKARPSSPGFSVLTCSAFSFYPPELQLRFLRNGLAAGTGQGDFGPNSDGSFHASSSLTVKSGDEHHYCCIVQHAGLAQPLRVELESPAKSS
- T1 sequence (P61769 21-119 limits assumed, chain 2 of 2): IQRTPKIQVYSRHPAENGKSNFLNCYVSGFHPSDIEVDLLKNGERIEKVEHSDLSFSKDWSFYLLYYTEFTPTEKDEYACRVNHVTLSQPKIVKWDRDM
- methodNotes: competitive binding ELISA, pH 6.0; competitor Efgartigimod (Fc Fragment 1)
Form field: IC50 (one value per entry).
The reply should be a number in nM, with the unit left off.

Example entries begin here.
{"binder": "Fc Fragment 2 (other, Human IgG1 Fc fragment; substitutions already in the entry; also called Fc195) DKTHTCPPCPAPELLGGPSVFLFPPKPKDTLYITREPEVTCVVVDVSHEDPEVKFNWYVDGVEVHNAKTKPREEQYNSTYRVVSVLTVLHQDWLNGKEYKCKVSNKALPAPIEKTISKAKGQPREPQVYTLPPSRDELTKNQVSLTCLVKGFYPSDIAVEWESNGQPENNYKTTPPVLDSDGSFFLYSKLTVDKSRWQQGNVFSCSVLHEALKFHYTQKSLSLSPG", "IC50 / nM": 4.09}
{"binder": "Fc Fragment 3 (other, Human IgG1 Fc fragment; substitutions already in the entry; also called Fc197) DKTHTCPPCPAPELLGGPSVFLFPPKPKDTLYITREPEVTCVVVDVSHEDPEVKFNWYVDGVEVHNAKTKPREEQYNSTYRVVSVLTVLHQDWLNGKEYKCKVSNKALPAPIEKTISKAKGQPREPQVYTLPPSRDELTKNQVSLTCLVKGFYPSDIAVEWESNGQPENNYKTTPPVLDSDGSFFLYSKLTVDKSRWQQGNVFSCSVMHEALKYHYTQKSLSLSPG", "IC50 / nM": 4.59}

We now examine a further binder.
I would be grateful if you could share the reported IC50 for Fc Fragment 11 (other, Human IgG1 Fc fragment; substitutions already in the entry) DKTHTCPPCPAPELLGGPSVFLFPPKPKDTLYITREPEVTCVVVDVSHEDPEVKFNWYVDGVEVHNAKTKPREEQYNSTYRVVSVLTVLHQDWLNGKEYKCKVSNKALPAPIEKTISKAKGQPREPQVYTLPPSRDELTKNQVSLTCLVKGFYPSDIAVEWESNGQPENNYKTTPPVLDSDGSFFLYSKLTVDKSRWQQGNVFSCSVLHEALHFHYTQKSLSLSPG .
6.47
